The measurements presented in this section are drawn from ChEMBL document CHEMBL1781938.

- assayRemarks: Displacement of [3H]Ro151788 from bovine GABA-A receptor
- Design: species or system Bos taurus
measurementType: Ki (nM)
The response must be a number in nM with no trailing unit.

Solved entries (count: 3):
[in] Fill in the blank: the reported Ki of `[O-][n+]1nc2c(-c3ccsc3)cnn2c2cc(-c3ccc[nH]3)ccc21` is ____.
[out] 19.4

[in] Fill in the blank: the reported Ki of `O=C(OCc1cccs1)c1cnn2c1n[n+]([O-])c1ccc(-c3ccco3)cc12` is ____.
[out] 54.8

[in] Fill in the blank: the reported Ki of `[O-][n+]1nc2c(-c3ccsc3)cnn2c2cc(-c3ccco3)ccc21` is ____.
[out] 209

***
[in] Fill in the blank: the reported Ki of `[O-][n+]1nc2c(I)cnn2c2cc(-c3ccc[nH]3)ccc21` is ____.
[out] 25

[in] Fill in the blank: the reported Ki of `COc1ccc(-c2ccc3c(c2)n2ncc(C(=O)c4ccco4)c2n[n+]3[O-])cc1` is ____.
[out] 239

* * *

Recorded Activity, one value per entry.
- Species on record: Bos taurus
- assayRemarks: Displacement of [3H]Ro151788 from bovine GABA-A receptor at 10 uM

Solved entries (count: 2):
[in] Fill in the blank: the reported Activity of `COc1ccccc1-c1ccc2c(c1)n1ncc(I)c1n[n+]2[O-]` is ____.
[out] > 80%

[in] Fill in the blank: the reported Activity of `[O-][n+]1nc2c(I)cnn2c2cc(-c3ccco3)ccc21` is ____.
[out] > 80%

***
[in] Fill in the blank: the reported Activity of `COC(=O)c1cnn2c1n[n+]([O-])c1ccc(-c3ccc[nH]3)cc12` is ____.
[out] > 80%

* * *

Recorded log10(Ki), one value per entry.
- assayRemarks: Displacement of [3H]Ro151788 from bovine GABA-A receptor
- Parameters: species or system Bos taurus
Transform log10 | Measure Ki | Unit nM

Solved entries (count: 2):
[in] Fill in the blank: the reported log10(Ki) of `[O-][n+]1nc2c(I)cnn2c2cc(-c3ccncc3)ccc21` is ____.
[out] 3.38

[in] Fill in the blank: the reported log10(Ki) of `[O-][n+]1nc2c(I)cnn2c2cc(-c3ccsc3)ccc21` is ____.
[out] 1.75

***
[in] Fill in the blank: the reported log10(Ki) of `COc1ccc(-c2ccc3c(c2)n2ncc(C(=O)OCc4cccs4)c2n[n+]3[O-])cc1` is ____.
[out] 1.47

[in] Fill in the blank: the reported log10(Ki) of `[O-][n+]1nc2c(-c3ccsc3)cnn2c2cc(-c3cccs3)ccc21` is ____.
[out] 2.57

[in] Fill in the blank: the reported log10(Ki) of `[O-][n+]1nc2c(-c3ccco3)cnn2c2cc(-c3ccsc3)ccc21` is ____.
[out] 1.43

* * *

- assayRemarks: Displacement of [3H]Ro151788 from bovine GABA-A receptor
- Set-up: species or system Bos taurus
Note to self: Ki under 400 nM means Satisfied, ties and anything higher get Not satisfied.

These recorded examples may help you get a feel for the data.
[in] Hello, is Ki of the following molecule strictly smaller than 400 nM? `COc1ccc(-c2ccc3c(c2)n2ncc(I)c2n[n+]3[O-])cc1`
[out] Satisfied

[in] Hello, is Ki of the following molecule strictly smaller than 400 nM? `[O-][n+]1nc2c(-c3ccsc3)cnn2c2cc(-c3ccsc3)ccc21`
[out] Satisfied

[in] Hello, is Ki of the following molecule strictly smaller than 400 nM? `[O-][n+]1nc2c(I)cnn2c2cc(-c3cccs3)ccc21`
[out] Satisfied

***
[in] Hello, is Ki of the following molecule strictly smaller than 400 nM? `[O-][n+]1nc2c(-c3ccsc3)cnn2c2cc(-c3ccccc3)ccc21`
[out] Not satisfied

[in] Hello, is Ki of the following molecule strictly smaller than 400 nM? `[O-][n+]1nc2c(I)cnn2c2cc(-c3ccccc3O)ccc21`
[out] Not satisfied

[in] Hello, is Ki of the following molecule strictly smaller than 400 nM? `COC(=O)c1cnn2c1n[n+]([O-])c1ccc(-c3ccc[nH]3)cc12`
[out] Satisfied

[in] Hello, is Ki of the following molecule strictly smaller than 400 nM? `O=C(c1ccco1)c1cnn2c1n[n+]([O-])c1ccc(-c3ccco3)cc12`
[out] Not satisfied
